- protocol-text: plasma pharmacokinetics of vorolanib, X-297 and everolimus
- Assay type: in vivo
- particulars: human, oral, t1/2z (half-life), range over cohorts, first single dose, vorolanib 100–200 mg in combination with everolimus 5 mg
readout: half-life

In plain terms, Cc1[nH]c(/C=C2\C(=O)Nc3ccc(F)cc32)c(C)c1C(=O)N[C@H]1CCN(C(=O)N(C)C)C1 [vorolanib, Vorolanib] has a documented half-life of 4.74 to 12.9 h

Reference source: paper PMC7184160
